Cited source: PubChem BioAssay

Items are presented alongside their recorded composite z-score.
Tested on: Sonic hedgehog protein (Shh)
Experiment: Sonic hedgehog microarray binding compounds – biochemical, small-molecule microarray, 635/667 nm fluorescence, primary screen (AID 1151);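 note: Shh protein binding to compounds spotted on small-molecule microarray slides; score combines spot fluorescence intensity with signal-to-noise across triplicate slides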
Conditions: 635 nm fluorescence, higher = more signal
// no unit string in output, number only

{"columns": ["compound", "target_entity", "val"],
 "data": [
  ["COC(=O)[C@@]1(Cc2ccccc2)[C@H]2c3cc(C(=O)N(C)C)n(Cc4ccc(C)o4)c3C[C@H]2CN1C(=O)c1ccccc1", "Sonic hedgehog protein (Shh)", 0.406],
  ["CCCCCN1CC=CC23O[C@@H]4/C=C\\CCCOC(=O)C4[C@H]2C(=O)N(C(C)CO)[C@@H]3C1=O (stereo partly specified)", "Sonic hedgehog protein (Shh)", 0.0074],
  ["CC1=C2[C@@H](CCc3ccccc3)OB(O)C[C@@H]2[C@@H]2C(=O)N(C)C(=O)[C@@H]2C1", "Sonic hedgehog protein (Shh)", 0.464],
  ["[N-]=[N+]=NCc1ccccc1[C@@H]1OC(c2ccc(OCCCO)cc2)=N[C@]1(CCS(=O)(=O)c1ccccc1)C(=O)O", "Sonic hedgehog protein (Shh)", -1.42],
  ["CC#CCO[Si](C#Cc1ccccc1)(C(C)C)C(C)C", "Sonic hedgehog protein (Shh)", 0.12]
]}

The measured composite z-score associated with Cn1cccc1C(O)C1C=CC2C(=O)N(c3ccccc3)C(=O)C2N1Nc1ccccc1 (stereo unspecified) reads 0.379

# composite z-score of "O=C(NCc1ccc(F)cc1)[C@H]1C[C@H]2C(=O)NCC(=O)N2[C@H]1c1ccc(O)cc1" = 1.69

The recorded composite z-score for "COCCOC(=O)N1C(=O)[C@@]2(c3cc(C#CC4=CCCCC4)ccc31)[C@H](c1ccccc1OCCO)N1[C@H](c3ccccc3)[C@H](c3ccccc3)OC(=O)[C@H]1[C@@H]2C(=O)N1CCN(c2ncccn2)CC1" is 0.942

Field composite z-score (entry CC(C)C(CO)N1C(=O)[C@@H]2[C@H]3C(=O)OCC=C[C@H]3OC23C=CCN(c2ccc(Cl)cc2)C(=O)[C@@H]13 (stereo partly specified) ) reads -0.339

Briefly, composite z-score measured for "CCCC=C(CCC)[C@@H](NC(=O)C(C)(C)C)c1ccc(C(=O)OC)cc1" : -0.824

Lab note: measured composite z-score of "O=C1N(Cc2ccccc2)c2ccccc2C[C@]12N=C(c1ccc(OCCCO)cc1)O[C@@H]2c1ccccc1" was 0.837

====

Form field: composite z-score (one value per entry).
Test: binders of probe aHhip on microarray, primary screen, stem cell growth factor project, biochemical, small-molecule microarray, fluorescence 635/667 (AID 1087);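 note: score merges spot fluorescence at 667nm with spot signal to noise ratio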
Details: higher = more signal
I only need the number, thanks.

Looking up "CCCC#C[Si](O[C@H](CC)c1cn([C@H](C)c2ccccc2)nn1)(C(C)C)C(C)C" , I see its composite z-score listed as -0.407

The molecule CCCCCN1CC=CC23O[C@@H]4C=CCCOC(=O)C4[C@H]2C(=O)N(CCCCCCO)[C@@H]3C1=O (stereo not given in full) showed composite z-score equal to -0.0994

Given item "C=CC[C@H](OC(=O)Nc1ccc(SC)cc1)c1ccc(O)c2ccccc12" , the value recorded as its composite z-score is 0.176

# composite z-score (molecule: "NCCCCCCNC(=O)[C@@H]1C[C@@H]2C(=O)N[C@@H](CCCCN)C(=O)N2[C@@H]1c1ccc(O)cc1" ) is -0.149

Summary for this molecule, "CCOC(=O)C[C@H]1[C@H](OC(=O)c2cc3ccccc3oc2=O)[C@@H](NC(=O)c2ccc3ccccc3n2)c2cc(OCCCO)ccc2N1C(=O)Cc1ccc(OC)cc1" : composite z-score is -0.201
